Property: IC50; scope: individual molecules
- Assayed System: human NHE3 (Homo sapiens)
- Sequence (P48764 26-834): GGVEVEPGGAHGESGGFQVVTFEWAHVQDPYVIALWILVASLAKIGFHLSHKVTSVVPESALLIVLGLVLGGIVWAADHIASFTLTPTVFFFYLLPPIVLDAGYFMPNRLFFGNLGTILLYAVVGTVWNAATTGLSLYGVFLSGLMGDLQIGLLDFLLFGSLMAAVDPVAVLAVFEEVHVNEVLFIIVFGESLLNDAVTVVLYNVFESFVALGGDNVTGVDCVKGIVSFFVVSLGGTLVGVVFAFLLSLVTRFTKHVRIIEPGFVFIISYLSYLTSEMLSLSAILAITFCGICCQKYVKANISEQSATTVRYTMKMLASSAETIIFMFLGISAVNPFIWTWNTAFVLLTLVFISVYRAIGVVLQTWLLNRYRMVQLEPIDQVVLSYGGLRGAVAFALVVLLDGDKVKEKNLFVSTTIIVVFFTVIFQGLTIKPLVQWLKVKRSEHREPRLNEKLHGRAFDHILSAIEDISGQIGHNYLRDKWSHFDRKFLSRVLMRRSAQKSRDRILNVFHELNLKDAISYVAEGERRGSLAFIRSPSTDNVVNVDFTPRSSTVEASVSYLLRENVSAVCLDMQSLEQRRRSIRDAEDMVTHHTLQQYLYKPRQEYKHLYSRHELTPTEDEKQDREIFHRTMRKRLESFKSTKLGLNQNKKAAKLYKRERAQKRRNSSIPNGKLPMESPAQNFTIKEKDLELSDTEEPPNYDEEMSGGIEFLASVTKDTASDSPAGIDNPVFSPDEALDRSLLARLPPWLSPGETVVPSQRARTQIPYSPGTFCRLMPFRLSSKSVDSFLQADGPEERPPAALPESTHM
- Method Description: Cell-based assay of NHE-3 activity (persistent inhibition), human
- Condition: PS120 fibroblasts stably expressing human NHE3, 60 min incubation then washout; read-out: pIC50 (human Persistence assay) (converted)

CN(C)[C@H]1Cc2c(F)cc(Cl)cc2[C@@H]1Oc1ccc(S(=O)(=O)NCCOCCOCCNC(=O)NCCCCNC(=O)NCCOCCOCCNS(=O)(=O)c2ccc(O[C@H]3c4cc(Cl)cc(F)c4C[C@@H]3N(C)C)cc2)cc1: < 100 nM
CN(C)[C@H]1Cc2c(Cl)cc(Cl)cc2[C@@H]1Oc1ccc(S(=O)(=O)NCCOCCOCCNC(=O)NCCCCNC(=O)NCCOCCOCCNS(=O)(=O)c2ccc(O[C@H]3c4cc(Cl)cc(Cl)c4C[C@@H]3N(C)C)cc2)cc1: < 100 nM
O=C(NCCCCNC(=O)NCCOCCOCCNS(=O)(=O)c1ccc(O[C@H]2c3cc(Cl)cc(Cl)c3C[C@@H]2N2CCCC2)cc1)NCCOCCOCCNS(=O)(=O)c1ccc(O[C@H]2c3cc(Cl)cc(Cl)c3C[C@@H]2N2CCCC2)cc1: < 100 nM

Next up:
Query: What does the data say about its IC50? Entry: "CN(C)[C@H]1Cc2ccccc2[C@@H]1Oc1ccc(S(=O)(=O)NCCOCCOCCNC(=O)NCCCCNC(=O)NCCOCCOCCNS(=O)(=O)c2ccc(O[C@H]3c4ccccc4C[C@@H]3N(C)C)cc2)cc1"
Response: < 100 nM
